- assay: Cmax in C57BL/6 mouse plasma at 10 mg/kg, ip administered as single dose by mass spectrometry
- Type: ADME, organism-based
- Set-up: dose 10 mg/kg, route intraperitoneal
result-type: Cmax (ng/mL)

P. CC(C)COC(=O)NC[C@@H]1CC[C@H]2[C@H](COc3ccc(NC(=O)c4ccc(C(F)(F)F)cc4)cc3C(=O)N2C)O1
Q. CN1C(=O)c2cc(NC(=O)c3ccc(C(F)(F)F)cc3)ccc2OC[C@@H]2O[C@H](CC(=O)NC3Cc4ccccc4C3)CC[C@@H]21
Prompt: Determine, for P and Q , which has the greater value of Cmax. Please identify the chosen entry by its label.
Response: P
